Test target: m1 muscarinic receptor (Rattus norvegicus, UniProt P08482)
Construct: expressed in transfected cells; host or cells: A9 L cells (mouse fibroblast line)
Sequence (P08482 whole entry): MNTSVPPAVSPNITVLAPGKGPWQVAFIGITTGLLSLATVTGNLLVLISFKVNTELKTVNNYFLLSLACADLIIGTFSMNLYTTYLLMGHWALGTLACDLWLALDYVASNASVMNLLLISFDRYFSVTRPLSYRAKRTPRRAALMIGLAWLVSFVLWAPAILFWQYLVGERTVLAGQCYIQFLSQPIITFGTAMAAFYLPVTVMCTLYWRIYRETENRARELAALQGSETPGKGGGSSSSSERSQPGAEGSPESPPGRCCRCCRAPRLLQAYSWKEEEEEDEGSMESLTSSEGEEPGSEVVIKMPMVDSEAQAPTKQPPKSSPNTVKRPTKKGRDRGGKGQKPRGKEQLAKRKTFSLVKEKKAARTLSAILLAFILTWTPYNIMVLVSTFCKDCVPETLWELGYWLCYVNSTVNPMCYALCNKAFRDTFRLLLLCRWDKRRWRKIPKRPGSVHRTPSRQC
Test details: IP hydrolysis in A9 L cells cloned with the genetic m1 muscarinic receptor
Format: cell-based, human and rat
Test conditions: IP hydrolysis, seven point curves, three separate experiments, read-out: EC50
Readout type: EC50 (nM)

Use the examples below as a reference point.
* CC(C#Cc1ccsc1)Oc1nsnc1[C@H]1CN2CCC[C@H]1C2 (some centres unmarked) | 7
* COc1cccc(C#CC(Oc2nsnc2[C@H]2CN3CCC[C@H]2C3)C(C)C)c1 (some centres unmarked) | 8
* Fc1ccc(C#CCOc2nsnc2[C@H]2CN3CC[C@@H]2C3)cc1 (single isomer, unassigned) [Compound 3] | 95
* C(#Cc1ccsc1)CSc1nsnc1[C@@H]1CN2CCC[C@H]1C2 | 300
* C(#Cc1ccccc1)COc1nsnc1[C@H]1CN2CC[C@@H]1C2 (single isomer, unassigned) [Compound 4] | 159
* C(#Cc1ccccc1)COc1nsnc1[C@H]1CN2CC[C@@H]1C2 (single isomer, unassigned) [Compound 11] | 98

A = C(#Cc1ccsc1)COc1nsnc1[C@H]1CN2CCC[C@H]1C2
B = COc1cccc(C#CC(C)Oc2nsnc2[C@H]2CN3CCC[C@H]2C3)c1 (some centres unmarked)
Given A and B , report the one with the higher recorded EC50. Could you answer with the label of the item you picked?
B
(B: 9 nM, A: 2 nM)

1 = C(#Cc1ccccc1)COc1nsnc1[C@H]1CN2CC[C@@H]1C2 (racemic) [Compound 1]
2 = FC(F)(F)c1cccc(C#CCOc2nsnc2[C@H]2CN3CCC[C@H]2C3)c1
# min-compare on EC50 between 1 and 2 // return label of chosen record
2
(2: 12 nM, 1: 210 nM)
